System: A549 cells
Test: FITC Annexin V/PI apoptosis detection by flow cytometry
Format: cell-based, human
Conditions: at IC50 concentrations
Procedure: The cells incubated with the compounds were centrifuged at 400 × g for 5 minutes in labeled tubes and washed twice with 1xPBS. […] 400 µL of 1×Annexin-V binding cell solution was transferred to flow cytometry tubes and the amount of early and late apoptotic cells was determined relative to the positive control using the BD FACSAria flow cytometer FACSDiva version 6.1.1 software.
Listed next: entries and their corresponding Early apoptotic cells %.

>>> result("c1ccc(C2=Nn3c(CCc4cccnc4)nnc3SC2)cc1")
"1.7%"

Form field Early apoptotic cells %, entry "Fc1ccc(C2=Nn3c(CCc4cccnc4)nnc3SC2)cc1" : 1.8%

Input "c1cncc(CCc2nnc3n2N=C(c2ccc4ccccc4c2)CS3)c1" . Output Early apoptotic cells %: 1.0%

Record N.N.[Cl][Pt][Cl] [Cisplatin, reference compound] . Reported Early apoptotic cells %: 1.8%

The compound listed as "COc1ccc2nc(NC(=O)CSc3nnc(CCc4cccnc4)n3N)sc2c1" shows Early apoptotic cells % equal to 0.9%

Early apoptotic cells % recorded for this compound, "Nn1c(CCc2cccnc2)nnc1SCC(=O)Nc1nccs1" , is 0.4%

The compound "Nn1c(CCc2cccnc2)nnc1SCC(=O)Nc1nc2ccccc2s1" showed Early apoptotic cells % equal to 0.7%

Looking up "O=[N+]([O-])c1ccc(C2=Nn3c(CCc4cccnc4)nnc3SC2)cc1" , I found its Early apoptotic cells % recorded as 2.4%

Value of measured Early apoptotic cells % for the entry "Nn1c(CCc2cccnc2)nnc1SCC(=O)Nc1nc2ccc(Cl)cc2s1" : 1.8%

Kindly note the recorded Early apoptotic cells % for "Nn1c(CCc2cccnc2)nnc1SCC(=O)Nc1nc2ccc(F)cc2s1" , which is 0.5%

// "Clc1ccc(C2=Nn3c(CCc4cccnc4)nnc3SC2)cc1" : Early apoptotic cells % value = 2.4%

Summary for this compound, "Cc1ccc2nc(NC(=O)CSc3nnc(CCc4cccnc4)n3N)sc2c1" : Early apoptotic cells % is 1.9%

---

test system: A549 cells; test: FITC Annexin V/PI apoptosis detection by flow cytometry; assay type: cell-based, human; details: at IC50 concentrations
Readout Type: Viable cells% (%)
API: value field is a number in %; no unit string.

These recorded examples may help you get a feel for the data.
>>> result_number("O=[N+]([O-])c1ccc(C2=Nn3c(CCc4cccnc4)nnc3SC2)cc1")
94.6
>>> result_number("Nn1c(CCc2cccnc2)nnc1SCC(=O)Nc1nc2ccccc2s1")
93.1
>>> result_number("c1ccc(C2=Nn3c(CCc4cccnc4)nnc3SC2)cc1")
95.0
>>> result_number("COc1ccc2nc(NC(=O)CSc3nnc(CCc4cccnc4)n3N)sc2c1")
84.5

Viable cells% recorded for this compound, "Nn1c(CCc2cccnc2)nnc1SCC(=O)Nc1nccs1" , is 91.0

---

system: A549 cells; test: FITC Annexin V/PI apoptosis detection by flow cytometry; type: cell-based, human; conditions: at IC50 concentrations, early plus late apoptotic cells
Readout Type: apoptotic activity (%)
Supply the numeric figure in %, leaving out any unit text.

>>> result_number("Fc1ccc(C2=Nn3c(CCc4cccnc4)nnc3SC2)cc1")
7.8
>>> result_number("Cc1ccc2nc(NC(=O)CSc3nnc(CCc4cccnc4)n3N)sc2c1")
9.6

Reported apoptotic activity ( "Nn1c(CCc2cccnc2)nnc1SCC(=O)Nc1nc2ccc(Cl)cc2s1" ) = 8.1

# compound N.N.[Cl][Pt][Cl] [Cisplatin, reference compound] ; its apoptotic activity = 7.6
